Where do the numbers come from? From ChEMBL document CHEMBL4725300.

# Species on record: Rattus norvegicus
# assay.procedure: Antagonist activity at GABAB receptor in Sprague-Dawley rat brain cortex membrane assessed as decrease in 10 uM GABA-stimulated [35S]GTPgammaS binding at 25 uM incubated for 30 mins relative to GABA
# Assay type: cell membranes
# Set-up: scale not given: the % may be the effect or the level left
# assay.context: Cerebral cortex, filed as antagonist
Consider the following molecules and their measured Activity readings.
API: value field is a number in %; no unit string.

# annotated cases, reported Activity shown
cpd.smiles: CC(C)c1c(O)nc(-c2ccccc2)n(Cc2ccccc2)c1=O
measure.unit: %
Activity: 8
--
cpd.smiles: CCOC(=O)c1cnc(-n2nc(C)cc2C)nc1NC1CCCC1
measure.unit: %
Activity: 40.8
--
cpd.smiles: Cc1c(O)c2cc(C(C)(C)C)ccc2n(CC(C)C)c1=O
measure.unit: %
Activity: 23.6
--
cpd.smiles: O=c1cc(-c2ccccc2)nc(Sc2ccccc2)[nH]1
measure.unit: %
Activity: 6.1
--
cpd.smiles: Cn1c(Sc2ccc(Cl)cc2)nc(-c2ccccc2)cc1=O
measure.unit: %
Activity: 34.1
--
cpd.smiles: Cc1c(O)nc(-c2ccccc2)n(Cc2ccccc2)c1=O
measure.unit: %
Activity: 6.2
--
cpd.smiles: CC(C)Cn1c(=O)c(C(C)C)c(O)c2cc(C(C)(C)C)ccc21
measure.unit: %
Activity: 36.2
--
cpd.smiles: CSc1ncc(-c2nc(C)no2)c(NC2CCCC2)n1
measure.unit: %
Activity: 19

Prompt: GET /values?readout=Activity&item= "CC(C)c1c(O)c2cc(C(C)(C)C)ccc2n(CC(C)(C)C)c1=O"
Response: 6.3

Prompt: GET /values?readout=Activity&item= "Cn1c(Sc2ccccc2)nc(-c2ccccc2)cc1=O"
Response: 4.7

Prompt: GET /values?readout=Activity&item= "CCCCCn1c(=O)c(C(C)C)c(O)c2cc(C(C)C)ccc21"
Response: 24.4

Prompt: GET /values?readout=Activity&item= "Cn1c(Sc2ccc(Cl)cc2)nc(-c2ccc(C(C)(C)C)cc2)cc1=O"
Response: 3.1

Prompt: GET /values?readout=Activity&item= "O=c1cc(O)nc(-c2ccccc2)n1Cc1ccccc1"
Response: 12.4

Prompt: GET /values?readout=Activity&item= "CC(C)Cn1c(=O)c(C(C)C)c(O)c2cc(C(C)C)ccc21"
Response: 41.5

Prompt: GET /values?readout=Activity&item= "CCCn1c(=O)c(C)c(O)c2cc(OC)ccc21"
Response: 7.4

Prompt: GET /values?readout=Activity&item= "CCOC(=O)c1cnc(SC)nc1NC1CCCC1"
Response: 5.7

Prompt: GET /values?readout=Activity&item= "CSc1ncc(-c2nnc(C)o2)c(NC2CCCC2)n1"
Response: 19

Prompt: GET /values?readout=Activity&item= "O=c1cc(-c2ccccc2)nc(Sc2ccc(Cl)cc2)[nH]1"
Response: 7.4

* * *

# Species on record: Rattus norvegicus
# assay.procedure: Antagonist activity at GABAB receptor in Sprague-Dawley rat brain cortex membrane assessed as decrease in 10 uM GABA-stimulated [35S]GTPgammaS binding at 2.5 uM incubated for 30 mins relative to GABA
# Format: cell membranes
# Parameters: scale not given: the % may be the effect or the level left
# assay.context: Cerebral cortex, filed as antagonist
endpoint.name: Activity (%)
API: value field is a number in %; no unit string.

# annotated cases, reported Activity shown
cpd.smiles: CCOC(=O)c1cnc(-n2nc(C)cc2C)nc1NC1CCCC1
endpoint.name: Activity
test.value: 14.4
--
cpd.smiles: CCCn1c(=O)c(C)c(O)c2cc(OC)ccc21
endpoint.name: Activity
test.value: 4.3
--
cpd.smiles: Cc1c(O)nc(-c2ccccc2)n(Cc2ccccc2)c1=O
endpoint.name: Activity
test.value: 5.7
--
cpd.smiles: CSc1ncc(-c2nnc(C)o2)c(NC2CCCC2)n1
endpoint.name: Activity
test.value: 17.1
--
cpd.smiles: CCCCCn1c(=O)c(C(C)C)c(O)c2cc(C(C)C)ccc21
endpoint.name: Activity
test.value: 7
--
cpd.smiles: Cn1c(Sc2ccc(Cl)cc2)nc(-c2ccccc2)cc1=O
endpoint.name: Activity
test.value: 10.9
--
cpd.smiles: Cn1c(Sc2ccccc2)nc(-c2ccccc2)cc1=O
endpoint.name: Activity
test.value: 1.6
--
cpd.smiles: CC(C)Cn1c(=O)c(C(C)C)c(O)c2cc(C(C)C)ccc21
endpoint.name: Activity
test.value: 13.5

Prompt: GET /values?readout=Activity&item= "O=c1cc(-c2ccccc2)nc(Sc2ccc(Cl)cc2)[nH]1"
Response: 4.9

Prompt: GET /values?readout=Activity&item= "CC(C)c1c(O)nc(-c2ccccc2)n(Cc2ccccc2)c1=O"
Response: 5.2

Prompt: GET /values?readout=Activity&item= "Cn1c(Sc2ccc(Cl)cc2)nc(-c2ccc(C(C)(C)C)cc2)cc1=O"
Response: 8.2

Prompt: GET /values?readout=Activity&item= "O=c1cc(-c2ccccc2)nc(Sc2ccccc2)[nH]1"
Response: 4.7

Prompt: GET /values?readout=Activity&item= "Cc1c(O)c2cc(C(C)(C)C)ccc2n(CC(C)C)c1=O"
Response: 8.4

Prompt: GET /values?readout=Activity&item= "CSc1ncc(-c2nc(C)no2)c(NC2CCCC2)n1"
Response: 10.3

Prompt: GET /values?readout=Activity&item= "CC(C)Cn1c(=O)c(C(C)C)c(O)c2cc(C(C)(C)C)ccc21"
Response: 15.3

Prompt: GET /values?readout=Activity&item= "O=c1cc(O)nc(-c2ccccc2)n1Cc1ccccc1"
Response: 0.9

Prompt: GET /values?readout=Activity&item= "CCOC(=O)c1cnc(SC)nc1NC1CCCC1"
Response: 10.3

Prompt: GET /values?readout=Activity&item= "CC(C)c1ccc2c(c1)c(O)c(C(C)C)c(=O)n2CC(C)(C)C"
Response: 2
